Reference for the values: patent US5753673A

Target: 5-HT1A receptor (Rattus norvegicus, UniProt P19327)
Construct: The rat cerebral cortex was homogenized in 50 mM Tris hydrochloride buffer; from tissue; host or cells: rat cerebral cortex membranes
Sequence (P19327 1-422): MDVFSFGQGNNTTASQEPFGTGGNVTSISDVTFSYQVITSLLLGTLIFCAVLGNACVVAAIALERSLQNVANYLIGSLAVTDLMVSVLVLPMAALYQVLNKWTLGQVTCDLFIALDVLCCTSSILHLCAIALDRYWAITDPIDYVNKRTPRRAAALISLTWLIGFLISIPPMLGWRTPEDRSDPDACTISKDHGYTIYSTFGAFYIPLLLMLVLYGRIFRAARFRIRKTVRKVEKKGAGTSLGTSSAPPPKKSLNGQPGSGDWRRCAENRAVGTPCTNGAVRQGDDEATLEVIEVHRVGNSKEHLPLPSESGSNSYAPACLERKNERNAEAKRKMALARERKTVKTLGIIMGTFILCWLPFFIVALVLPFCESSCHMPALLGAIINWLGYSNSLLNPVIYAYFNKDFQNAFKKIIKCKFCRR
Assay: Selectivity for receptors: 5-HT1A receptor, inhibition of [^3 H] 8-OH-DPAT binding to rat cerebral cortex membrane
Settings: [^3 H] 8-OH-DPAT 1 nM, rat cerebral cortex membrane; symbol, no activity in 10 μM; read-out: 5-HT1A receptor antagonizing action (IC50)
pIC50: −log10 of the molar value. Structures can show the parent of a compound that is named as a salt.
Reported values of pIC50 for individual entries

Some solved entries appear below for comparison.
COCCN1[C@@H]2CC[C@H]1C[C@@H](NC(=O)c1cc3ccccc3n(C(C)C)c1=O)C2 [Compound 10, hydrochloride] ... < 5.00
CC(C)n1c(=O)c(C(=O)NC2CC3CCC(C2)N3CCCO)cc2ccccc21 (stereo not shown) [Compound 5] ... < 5.00
CCOCCN1C2CCC1CC(NC(=O)c1cc3ccccc3n(C(C)C)c1=O)C2 (stereo not shown) [Compound 11] ... < 5.00

Problem: Form field: reported pIC50 of CC(C)n1c(=O)c(C(=O)N[C@H]2C[C@H]3CC[C@@H](C2)N3CCN2CCOCC2)cc2ccccc21 [Compound 20]
Result: < 5.00
